Target: ~100 representative kinases (Homo sapiens, UniProt Q00536)
Construct: Recombinant protein kinase domains with a concentration of 2 μM
Sequence (Q00536 whole entry, the tested form may be a part): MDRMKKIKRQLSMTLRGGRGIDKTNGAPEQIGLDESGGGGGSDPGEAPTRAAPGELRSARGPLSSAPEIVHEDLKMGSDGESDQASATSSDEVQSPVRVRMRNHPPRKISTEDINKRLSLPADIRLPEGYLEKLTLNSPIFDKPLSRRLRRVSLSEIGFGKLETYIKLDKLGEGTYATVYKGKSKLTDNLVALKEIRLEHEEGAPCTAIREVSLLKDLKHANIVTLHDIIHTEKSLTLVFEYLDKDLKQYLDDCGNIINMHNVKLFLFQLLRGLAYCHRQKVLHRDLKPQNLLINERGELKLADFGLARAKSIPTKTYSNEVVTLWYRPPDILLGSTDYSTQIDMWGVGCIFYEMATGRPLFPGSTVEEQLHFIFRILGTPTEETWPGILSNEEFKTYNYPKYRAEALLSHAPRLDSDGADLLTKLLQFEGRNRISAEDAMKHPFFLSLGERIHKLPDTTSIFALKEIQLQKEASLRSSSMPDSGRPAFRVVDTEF
Test: DSF 100 kinase selectivity screen;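 further: compound tested at 20 µM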
Assay type: binding
Conditions: protein PCTK1; average of three replicates
dTm listing for selected compounds.

Compound: COc1cc(C(=O)N2CCOCC2)c(F)cc1Nc1nc(N(C)C)c2c(Cl)c[nH]c2n1
dTm / K: 0.43
--
Compound: Cc1ccc(NC(=O)C2(C(=O)Nc3cccc(-c4c[nH]c5ncnc(N6CCOCC6)c45)c3)CC2)cc1
dTm / K: 6.61
--
Compound: CC(=O)N1CCN(c2nc(Cl)nc3[nH]cc(-c4cccc(NC(=O)Nc5cc(C(C)(C)C)nn5-c5ccc(C)cc5)c4)c23)CC1
dTm / K: 5.50
--
Compound: O=C(Nc1cccc(-c2c[nH]c3ncnc(N4CCOCC4)c23)c1)C1(C(=O)Nc2cc(Br)c(F)cc2F)CC1
dTm / K: -0.86

---

Target: ~100 representative kinases (Homo sapiens, UniProt P78368)
Construct: Recombinant protein kinase domains with a concentration of 2 μM
Sequence (P78368 whole entry, the tested form may be a part): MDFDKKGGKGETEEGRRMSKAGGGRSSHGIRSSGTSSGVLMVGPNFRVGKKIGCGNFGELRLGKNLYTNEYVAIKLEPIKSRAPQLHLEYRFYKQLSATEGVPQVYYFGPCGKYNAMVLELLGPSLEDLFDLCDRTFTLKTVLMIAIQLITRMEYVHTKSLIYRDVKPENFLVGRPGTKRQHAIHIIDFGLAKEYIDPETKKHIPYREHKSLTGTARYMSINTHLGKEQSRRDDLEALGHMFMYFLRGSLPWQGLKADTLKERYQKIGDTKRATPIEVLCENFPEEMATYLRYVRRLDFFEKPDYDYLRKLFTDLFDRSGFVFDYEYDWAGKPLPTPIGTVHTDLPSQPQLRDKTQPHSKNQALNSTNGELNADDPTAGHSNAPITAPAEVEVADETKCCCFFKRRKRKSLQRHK
Assay: DSF 100 kinase selectivity screen;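 further: compound tested at 20 µM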
Format: binding
Details: Protein CSNK1G2; average of three replicates
dTm listing for selected molecules.

Molecule: Cc1ccc(NC(=O)C2(C(=O)Nc3cccc(-c4c[nH]c5ncnc(N6CCOCC6)c45)c3)CC2)cc1 [Compound 14]
dTm: 0.81 K
--
Molecule: COc1cc2c(Oc3ccc(NC(=O)C4(C(=O)Nc5ccc(F)cc5)CC4)cc3F)ccnc2cc1OCCCN1CCOCC1 [Foretinib, reference compound]
dTm: 0.37 K
--
Molecule: O=C(Nc1cccc(-c2c[nH]c3ncnc(N4CCOCC4)c23)c1)C1(C(=O)Nc2ccc(F)c(Cl)c2)CC1 [Compound 18]
dTm: 0.27 K
--
Molecule: COc1ccc(NC(=O)C2(C(=O)Nc3cccc(-c4c[nH]c5ncnc(N6CCOCC6)c45)c3)CC2)cc1 [Compound 16]
dTm: 0.71 K
--
Molecule: CCc1ccc(NC(=O)C2(C(=O)Nc3cccc(-c4c[nH]c5ncnc(N6CCOCC6)c45)c3)CC2)cc1 [Compound 15]
dTm: 0.60 K
--
Molecule: O=C(Nc1cccc(-c2c[nH]c3ncnc(N4CCOCC4)c23)c1)C1(C(=O)Nc2ccc(F)c(F)c2)CC1 [Compound 17]
dTm: 0.36 K
--
Molecule: CC(C)(C)c1cc(NC(=O)Nc2cccc(-c3c[nH]c4ncnc(N5CCOCC5)c34)c2)n(-c2ccc3ncccc3c2)n1 [Compound 28]
dTm: 0.05 K
--
Molecule: O=C(Nc1ccc(Cl)cc1)C1(C(=O)Nc2cccc(-c3c[nH]c4ncnc(N5CCOCC5)c34)c2)CC1 [Compound 13]
dTm: 0.51 K

---

Target: ~100 representative kinases (Homo sapiens, UniProt P19784)
Construct: Recombinant protein kinase domains with a concentration of 2 μM
Sequence (P19784 whole entry, the tested form may be a part): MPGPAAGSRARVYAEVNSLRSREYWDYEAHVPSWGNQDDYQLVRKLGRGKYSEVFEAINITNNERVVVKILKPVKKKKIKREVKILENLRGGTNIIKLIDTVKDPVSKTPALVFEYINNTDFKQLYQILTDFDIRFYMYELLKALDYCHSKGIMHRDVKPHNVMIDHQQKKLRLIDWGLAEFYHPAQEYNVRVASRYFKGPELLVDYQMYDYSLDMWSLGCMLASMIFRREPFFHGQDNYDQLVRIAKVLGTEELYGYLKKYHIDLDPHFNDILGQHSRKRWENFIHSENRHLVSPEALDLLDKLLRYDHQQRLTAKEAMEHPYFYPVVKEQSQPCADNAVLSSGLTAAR
Assay: DSF 100 kinase selectivity screen;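 further: compound tested at 20 µM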
Format: binding
Details: Protein CK2A2; average of three replicates
dTm listing for selected compounds.
Measurement Label: dTm (K)

Compound: Cc1ccc(-n2nc(C(C)(C)C)cc2NC(=O)Nc2cccc(-c3c[nH]c4nc(Cl)nc(N5CCOCC5)c34)c2)cc1 [Compound 30]
Measurement Label: dTm
Measured: -4.20

Compound: COc1cc(NC(=O)C2(C(=O)Nc3cccc(-c4c[nH]c5ncnc(N6CCOCC6)c45)c3)CC2)ccc1F [Compound 21]
Measurement Label: dTm
Measured: 3.16

Compound: Cc1ccc(C(=O)Nc2ccc(CN3CCN(C)CC3)c(C(F)(F)F)c2)cc1C#Cc1cnc2[nH]ncc2c1 [GZD-824, reference compound]
Measurement Label: dTm
Measured: 1.79

Compound: O=C(Nc1cccc(-c2c[nH]c3ncnc(N4CCOCC4)c23)c1)C1(C(=O)Nc2ccc(F)c(Br)c2F)CC1 [Compound 26]
Measurement Label: dTm
Measured: 4.72

Compound: O=C(Nc1ccc(Cl)cc1)C1(C(=O)Nc2cccc(-c3c[nH]c4ncnc(N5CCOCC5)c34)c2)CC1 [Compound 13]
Measurement Label: dTm
Measured: 9.70

Compound: O=C(Nc1cccc(-c2c[nH]c3ncnc(N4CCOCC4)c23)c1)c1cccn(-c2ccc(F)cc2)c1=O [Compound 4]
Measurement Label: dTm
Measured: -5.10

Compound: Cc1cc(NC(=O)C2(C(=O)Nc3ccc(F)cc3)CC2)cc(-c2c[nH]c3ncnc(N4CCOCC4)c23)c1 [Compound 6]
Measurement Label: dTm
Measured: 2.54

Compound: CCc1ccc(NC(=O)C2(C(=O)Nc3cccc(-c4c[nH]c5ncnc(N6CCOCC6)c45)c3)CC2)cc1 [Compound 15]
Measurement Label: dTm
Measured: 1.24

Compound: COc1ccc(NC(=O)C2(C(=O)Nc3cccc(-c4c[nH]c5ncnc(N6CCOCC6)c45)c3)CC2)cc1 [Compound 16]
Measurement Label: dTm
Measured: 4.77

Compound: O=C(Nc1ccc(F)cc1)C1(C(=O)Nc2cccc(-c3c[nH]c4ncnc(N5CCOCC5)c34)c2)CC1 [Compound 2]
Measurement Label: dTm
Measured: 6.40

Compound: O=C(Nc1cccc(-c2c[nH]c3ncnc(N4CCOCC4)c23)c1)C1(C(=O)Nc2ccc(F)c(Br)c2)CC1 [Compound 19]
Measurement Label: dTm
Measured: 7.91

Compound: O=C(Nc1ccccc1)C1(C(=O)Nc2cccc(-c3c[nH]c4ncnc(N5CCOCC5)c34)c2)CC1 [Compound 12]
Measurement Label: dTm
Measured: 7.05

Compound: Cn1cc(-c2c[nH]c3ncnc(N4CCOCC4)c23)cc1C#N [PFE-360]
Measurement Label: dTm
Measured: 0.26

Compound: CC(=O)N1CCN(c2nc(Cl)nc3[nH]cc(-c4cccc(NC(=O)Nc5cc(C(C)(C)C)nn5-c5ccc(C)cc5)c4)c23)CC1 [Compound 31]
Measurement Label: dTm
Measured: -3.51

Compound: CNC(=O)c1cc(Oc2ccc(NC(=O)Nc3cc(C(C)(C)C)nn3-c3ccc4ncccc4c3)c(F)c2)ccn1 [Rebastinib, reference compound]
Measurement Label: dTm
Measured: 1.06

Compound: O=C(Nc1cccc(-c2c[nH]c3ncnc(N4CCOCC4)c23)c1)C1(C(=O)Nc2ccc(F)cc2F)CC1 [Compound 23]
Measurement Label: dTm
Measured: 1.02

Compound: COc1cc2c(Oc3ccc(NC(=O)C4(C(=O)Nc5ccc(F)cc5)CC4)cc3F)ccnc2cc1OCCCN1CCOCC1 [Foretinib, reference compound]
Measurement Label: dTm
Measured: 0.00

Compound: O=C(Nc1cccc(-c2c[nH]c3ncnc(N4CCOCC4)c23)c1)C1(C(=O)Nc2ccc(F)c(Cl)c2)CC1 [Compound 18]
Measurement Label: dTm
Measured: 1.36

Compound: Cc1ccc(NC(=O)C2(C(=O)Nc3cccc(-c4c[nH]c5ncnc(N6CCOCC6)c45)c3)CC2)cc1 [Compound 14]
Measurement Label: dTm
Measured: 5.87

Compound: Cc1ccc(C(=O)Nc2ccc(CN3CCN(C)CC3)c(C(F)(F)F)c2)cc1C#Cc1c[nH]c2ncnc(N3CCOCC3)c12 [Compound 1]
Measurement Label: dTm
Measured: -0.08

---

Target: ~100 representative kinases (Homo sapiens)
Construct: Recombinant protein kinase domains with a concentration of 2 μM
Experiment: DSF 100 kinase selectivity screen;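 further: compound tested at 20 µM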
Type: binding
Details: protein FGFR3; average of three replicates
log10 of dTm listing for selected molecules.
Measurement Label: log10 of dTm (log10 of the value in K)

Molecule: Cc1ccc(C(=O)Nc2ccc(CN3CCN(C)CC3)c(C(F)(F)F)c2)cc1C#Cc1cnc2cccnn12 [Ponatinib, reference compound]
Target Of Assay: ~100 representative kinases (Homo sapiens)
Measured: 1.15
--
Molecule: CC(C)(C)c1cccc(NC(=O)C2(C(=O)Nc3cccc(-c4c[nH]c5ncnc(N6CCOCC6)c45)c3)CC2)c1
Target Of Assay: ~100 representative kinases (Homo sapiens)
Measured: 0.66
--
Molecule: O=C(Nc1cccc(-c2c[nH]c3ncnc(N4CCOCC4)c23)c1)C1(C(=O)Nc2ccc(F)c(Br)c2)CC1
Target Of Assay: ~100 representative kinases (Homo sapiens)
Measured: 0.68
--
Molecule: Cn1cc(-c2c[nH]c3ncnc(N4CCOCC4)c23)cc1C#N
Target Of Assay: ~100 representative kinases (Homo sapiens)
Measured: 0.33
--
Molecule: O=C(Nc1cccc(-c2c[nH]c3ncnc(N4CCOCC4)c23)c1)C1(C(=O)Nc2cccc3c2CCC3)CC1
Target Of Assay: ~100 representative kinases (Homo sapiens)
Measured: 0.45
--
Molecule: CCNc1nc(Nc2cc(F)c(C(=O)N3CCOCC3)cc2OC)ncc1C(F)(F)F
Target Of Assay: ~100 representative kinases (Homo sapiens)
Measured: 0.15
--
Molecule: Cc1ccc(C(=O)Nc2ccc(CN3CCN(C)CC3)c(C(F)(F)F)c2)cc1C#Cc1c[nH]c2ncnc(N3CCOCC3)c12
Target Of Assay: ~100 representative kinases (Homo sapiens)
Measured: 0.62

---

Molecular target: ~100 representative kinases (Homo sapiens)
Construct: Recombinant protein kinase domains with a concentration of 2 μM
Experiment: DSF 100 kinase selectivity screen;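 further: compound tested at 20 µM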
Assay type: binding
Conditions: Protein AAK1; average of three replicates
Protocol: Recombinant protein kinase domains with a concentration of 2 μM were mixed with a 20 μM compound solution in dimethyl sulfoxide (DMSO), 20 mM Hepes (pH 7.5), and 500 mM NaCl. SYPRO Orange (5000×, Invitrogen) was added as a fluorescence probe (1μl/ml). Subsequently, temperature-dependent protein unfolding profiles were measured using the QuantStudio 5 realtime PCR machine (Thermo Fisher Scientific, Waltham, MA, USA). […] The temperature was raised with a step rate of 3°C/min. […]
dTm listing for selected compounds.

Compound: O=C(Nc1cccc(-c2c[nH]c3ncnc(N4CCOCC4)c23)c1)c1cccn(-c2ccc(F)cc2)c1=O
dTm, K: 1.95
--
Compound: O=C(Nc1cccc(-c2c[nH]c3ncnc(N4CCOCC4)c23)c1)C1(C(=O)Nc2ccc(F)cc2F)CC1
dTm, K: 2.93
--
Compound: COc1cc(S(C)(=O)=O)ccc1Nc1nc(N(C)C)c2c(Cl)c[nH]c2n1
dTm, K: 0.85
--
Compound: O=C(Nc1ccc(F)cc1)C1(C(=O)Nc2cccc(-c3c[nH]c4ncnc(N5CCOCC5)c34)c2)CC1
dTm, K: 3.27
